Source: patent US10752587B2

target: glutathione-S-transferase (GST) tagged LXRbeta LBD (ligand binding domain) (Homo sapiens); construct: purchased Invitrogen pv4658.pps; assay: LanthaScreen TR-FRET Liver X Receptor Coactivator Assay, co-activator recruitment to LXRbeta LBD; type: biochemical; conditions: LXR beta IP (nM), potency (Inflection Point, IP), co-activator recruitment to LXRbeta LBD, in relation to T0901317
Mark each entry satisfied if its EC50 sits below 40 nM, and not satisfied for all others.

Consider the following illustrative entries.
Qu. Consider the compound CN(C)C(=O)c1ccc(N2CCC(CC3CCN(C(=O)C(O)(c4ccccc4)C4CCCC4)CC3)CC2)nc1Cl (centres unmarked) . Is its EC50 strictly less than 40 nM?
Ans. not satisfied

Qu. # strict comparison: is reported EC50 < 40 nM? input = CN(C)C(=O)c1ccc(N2CCC(CC3CCN(C(=O)[C@](O)(c4ccccc4)C4CCCC4)CC3)CC2)nc1Cl
Ans. not satisfied

Qu. In plain terms, does CN(C)C(=O)c1ccc(N2CCC(CC3CCN(C(=O)C(O)(c4ccccc4)c4ccccc4)CC3)CC2)nc1Cl come in under 40 nM for EC50?
Ans. not satisfied

Qu. Please check: EC50 for CNC(=O)c1ccc(N2CCC(SC3CCN(C(=O)[C@](O)(c4cccc(OC)c4)C(F)(F)F)CC3)CC2)nc1Cl , strictly under 40 nM or not?
Ans. satisfied

Qu. Determine if COc1cccc([C@@](O)(C(=O)N2CCC(CC3CCN(c4ccc(C(=O)N(C)C)c(Cl)c4)CC3)CC2)C2CC2)c1 shows EC50 strictly lower than 40 nM.
Ans. not satisfied

Qu. Please state whether EC50 is below 40 nM for CN(C)C(=O)c1ccc(N2CCC(SC3CCN(C(=O)[C@](O)(c4cccc(OC(F)(F)F)c4)C(F)(F)F)CC3)CC2)nc1Cl
Ans. satisfied

Qu. For CN(C)C(=O)c1ccc(N2CCC(CC3CCN(C(=O)C(O)(c4ccccc4)C4CCCCC4)CC3)CC2)nc1Cl (centres unmarked) , is the recorded EC50 below the cut-off of 40 nM?
Ans. not satisfied

Qu. Confirm or reject: EC50 of CN(C)C(=O)c1ccc(N2CCC(CC3CCN(C(=O)C(O)(c4ccccc4)c4ccsc4)CC3)CC2)nc1Cl (centres unmarked) lies strictly below 40 nM
Ans. not satisfied

Next:
Qu. Is it true that EC50 reported for COc1cccc([C@@](O)(C(=O)N2CCC(SC3CCN(c4ccc(C(=O)N(C)C)c(Cl)c4)CC3)CC2)C(F)(F)F)c1 is less than 40 nM?
Ans. satisfied

Qu. Hello, I'm reviewing records and need to know if EC50 of COc1cccc([C@@](O)(C(=O)N2CCC(CC3(C)CCN(c4ccc(C(=O)N(C)C)c(Cl)c4)CC3)CC2)C(F)(F)F)c1 is below 40 nM. Could you check?
Ans. satisfied

* * *

I'd be grateful if you could share measured Emax for these entries.
molecular target: glutathione-S-transferase (GST) tagged LXRbeta LBD (ligand binding domain) (Homo sapiens, UniProt P55055); construct: purchased Invitrogen pv4658.pps; experiment: LanthaScreen TR-FRET Liver X Receptor Coactivator Assay, co-activator recruitment to LXRbeta LBD; type: biochemical; conditions: read-out: LXR beta Activity @ max dose (%)
Sequence (P55055 222-460 limits assumed): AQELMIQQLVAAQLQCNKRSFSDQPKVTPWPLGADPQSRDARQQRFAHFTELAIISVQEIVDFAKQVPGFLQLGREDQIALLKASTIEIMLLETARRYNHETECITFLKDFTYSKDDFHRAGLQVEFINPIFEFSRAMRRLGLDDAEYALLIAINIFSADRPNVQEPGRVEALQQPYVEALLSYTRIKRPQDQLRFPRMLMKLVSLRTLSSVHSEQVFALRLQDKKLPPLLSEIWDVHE
Put your answer as a value accompanied by its unit after it.

Qu. Please look at this compound and report its Emax: Cc1nc(N2CCC(CC3CCN(C(=O)C(O)(c4cccc(Cl)c4)C(F)(F)F)CC3)CC2)ccc1C(=O)N(C)C (centres unmarked)
Ans. 95%

Qu. Supply reported Emax belonging to this compound: CN(C)C(=O)c1ccc(N2CCC(CC3CCN(C(=O)C(O)(c4ccccc4)C4CCC4)CC3)CC2)nc1Cl (centres unmarked)
Ans. 98%

Qu. Please report Emax for the following compound: COc1cccc([C@@](O)(C(=O)N2CCC(C(=O)N3CCN(c4ccc(C(=O)N(C)C)c(Cl)c4)CC3)CC2)C(F)(F)F)c1
Ans. 31%

# batch size: 2; output Emax per entry
1. CN(C)C(=O)c1ccc(N2CCC(SC3CCN(C(=O)[C@](O)(c4cccc(OC(F)(F)F)c4)C(F)(F)F)CC3)CC2)nc1Cl
2. CN(C)C(=O)c1ccc(N2CCC(CC3CCN(C(=O)[C@](O)(c4ccccc4)C4CCCC4)CC3)CC2)nc1Cl

Ans.
1: 60%; 2: 76%
